System: ileum
assayNotes: Intestinal constriction effect, isolated ileum in Magnus tube
Design: species or system male Wister rat
appliedConditions: rat ileum, constriction relative to acetylcholine, ED50 class
testReadout: EC50

1. CCCCCC(=O)CC[C@H]1[C@H](O)CC(=O)[C@@H]1C/C=C\CCCC(=O)O [Material (1), 13, 14-dihydro-15-keto-PGE2, reference compound]: > 100 µM

Give me EC50 for each of these compounds, listed below.
1. CCCCC[C@H](O)/C=C/[C@H]1[C@H](O)CC(=O)[C@@H]1C/C=C\CCCC(=O)O [A]
2. CCCCCC(=O)CC[C@H]1[C@H](O)CC(=O)[C@@H]1C/C=C\CCCC(=O)OCC [Material (3), 13, 14-dihydro-15-keto-PGE2 ethyl ester]
3. CCCCC[C@H](O)/C=C/[C@H]1[C@H](O)CC(=O)[C@@H]1C/C=C\CCCC(=O)OCC [B]

Output:
["< 1 µM", "> 100 µM", "< 1 µM"]

====

Tested on: indomethacin-induced ulcers
assayNotes: Indomethacin-induced ulcers (indomethacin ulcer preventing effect)
Format: in vivo, male rats of the Crj : Wistar strain
appliedConditions: indomethacin 10 mg/kg oral ulcer, rats, dosage 3 mg/kg, index 0-4
testReadout: Ulcer index (aver. ± SE)
One number for each entry.

1) CCCCCC(=O)CC[C@H]1[C@H](O)CC(=O)[C@@H]1CC(=O)CCCCC(=O)OC: 1.7
2) CCCCCC(=O)CC[C@H]1[C@H](O)CC(=O)[C@@H]1C/C=C\CCCC(=O)OC: 1.9
3) CCCCCC(=O)CC[C@H]1[C@H](O)CC(=O)[C@@H]1C/C=C\CCCC(=O)OCC: 1.7
4) CCCCCC(=O)CC[C@H]1[C@H](O)CC(=O)[C@@H]1CC(=O)CCCCC(=O)OCC [(9)]: 1.5

Input: Tell me its Ulcer index (aver. ± SE) given CCCCCC(=O)CC[C@H]1[C@H](O)CC(=O)[C@@H]1CC(=O)CCCCC(=O)OCC (racemic) [(11)] as the entry.
Output: 2.6

====

System: indomethacin-induced ulcers
assayNotes: Indomethacin-induced ulcers (indomethacin ulcer preventing effect)
Format: in vivo, male rats of the Crj : Wistar strain
appliedConditions: Rattus norvegicus; indomethacin ulcer, rats, oral; ulcer inhibition rate (Table 2)
testReadout: ED50 (mg/kg)
Give bare numbers, in mg/kg.

Example entries and their recorded answers appear below.
1) CCCCCC(=O)CC[C@H]1[C@H](O)CC(=O)[C@@H]1CC(=O)CCCCC(=O)OC [(8)]: 3.8
2) CCCCCC(=O)CC[C@H]1[C@H](O)CC(=O)[C@@H]1CC(=O)CCCCC(=O)OCC [(9)]: 3
3) CCCCCC(=O)CC[C@H]1[C@H](O)CC(=O)[C@@H]1CC(=O)CCCCC(=O)OCC (racemic) [(11)]: 10

Each compound below has a recorded value; state its ED50.
1. CCCCCC(=O)CC[C@H]1[C@H](O)CC(=O)[C@@H]1C/C=C\CCCC(=O)OC [(2)]
2. CCCCCC(=O)CC[C@H]1[C@H](O)CC(=O)[C@@H]1C/C=C\CCCC(=O)OCC [(3)]

Output:
1. 6
2. 4.4

====

Kindly supply the reported pEC50 values for the records listed here.
System: uterus
assayNotes: Uterine constriction, isolated uterus in Magnus tube
Set-up: species or system female rat
appliedConditions: rat uterus, constriction relative to 1 mU oxytocin = 100, EC50 class; read-out: Uterus constriction effect
pEC50: −log10 of the molar value.

Field: example entries. Status: answers known.
1) CCCCCC(=O)CC[C@H]1[C@H](O)CC(=O)[C@@H]1C/C=C\CCCC(=O)O [Material (1), 13, 14-dihydro-15-keto-PGE2, reference compound]: 5.00 to 7.00
2) CCCCC[C@H](O)/C=C/[C@H]1[C@H](O)CC(=O)[C@@H]1C/C=C\CCCC(=O)O: > 7.00
3) CCCCC[C@H](O)/C=C/[C@H]1[C@H](O)CC(=O)[C@@H]1C/C=C\CCCC(=O)OCC: 5.00 to 7.00

Input: Supply reported pEC50 belonging to this compound: CCCCCC(=O)CC[C@H]1[C@H](O)CC(=O)[C@@H]1C/C=C\CCCC(=O)OCC [Material (3), 13, 14-dihydro-15-keto-PGE2 ethyl ester]
Output: < 5.00
